PROTOCOL_DESCRIPTION: Agonist activity at vitamin D3 receptor in human HL-60 cells assessed as induction of cell differentiation after 96 hrs by NBT dye-based microscopic analysis
RECORDED_METRIC: EC50 (nM)

Guide cases for EC50, answers given:
1) CCn1c(C(=O)N(C)CC(=O)O)ccc1C(CC)(CC)c1ccc(OCC(O)C(C)(C)C)c(C)c1 (stereo not drawn) | 740
2) C#CCCOC(=O)c1ccc(C(CC)(CC)c2ccc(OCC(O)C(C)(C)C)c(C)c2)n1CC (stereo not drawn) | 1030
3) CCn1c(C(=O)NCCN)ccc1C(CC)(CC)c1ccc(OCC(=O)C(C)(C)C)c(C)c1 | 120
4) CCn1c(C(=O)N(CCC#N)CCC#N)ccc1C(CC)(CC)c1ccc(OCC(O)C(C)(C)C)c(C)c1 (stereo not drawn) | 97
5) CCN(CC)CCCNC(=O)c1ccc(C(CC)(CC)c2ccc(OCC(O)C(C)(C)C)c(C)c2)n1CC (stereo not drawn) | 66
6) CCn1c(C(=O)N(C)CC(=O)O)ccc1C(CC)(CC)c1ccc(OCC(=O)C(C)(C)C)c(C)c1 | 1390

[1] CCN(CC)CCNC(=O)c1ccc(C(CC)(CC)c2ccc(OCC(O)C(C)(C)C)c(C)c2)n1CC (stereo not drawn)
[2] CCn1c(C(=O)N(CCC#N)CCC#N)ccc1C(CC)(CC)c1ccc(OCC(=O)C(C)(C)C)c(C)c1
# returns the entry with the larger EC50; inputs 1 and 2 Respond with the label that goes with your answer.
2
(2: 870 nM, 1: 110 nM)

Recorded values, source BindingDB's records for doi:10.1016/j.ejmech.2015.10.042.
